System: pERK in NCI-H358 cells
Assay: Cell-based pERK HTRF assay (pERK inhibition in H358 cells)
Conditions: Homo sapiens, NCI-H358, 0.5 h, 30 min incubation
measured.endpoint: IC50

> print(dat)
                               query.smiles  assay.result
1  C=CC(=O)N1CC[C@@H](N(CC)c2nc(OC[C@@]34CCCN3C[C@H](F)C4)nc3cc(-c4ccc(F)c5sc(N)c(C#N)c45)c(F)cc23)[C@@H]1CC   0.1 to 1 µM
2  C=CC(=O)N1CC[C@@H](N(C)c2nc(OC[C@@H]3C[C@@H](F)CN3CC)nc3c(F)c(-c4ccc(F)c5sc(N)c(C#N)c45)c(Cl)cc23)[C@H]1C   0.1 to 1 µM
3  C=CC(=O)N1CC[C@@H](N(CC)c2nc(OC[C@@]34CCCN3C[C@H](OC)C4)nc3c(F)c(-c4ccc(F)c5sc(N)c(C#N)c45)c(Cl)cc23)[C@H]1C      < 0.1 µM
4  C=CC(=O)N1CC[C@@H](N(C)c2nc(OC[C@@H]3C[C@@H](OC)CN3CC)nc3c(F)c(-c4ccc(F)c5sc(N)c(C#N)c45)c(Cl)cc23)[C@@H]1C      < 0.1 µM
5  C[C@@H]1CN(c2nc(OC[C@@]34CCCN3C[C@H](F)C4)nc3c(F)c(-c4ccc(F)c5sc(N)c(C#N)c45)c(C(F)(F)F)cc23)[C@@H](C)CN1C(=O)[C@H](F)Cl   0.1 to 1 µM
